test system: Saccharomyces cerevisiae; test: protein stability index of tFT-peptide fusion (C-terminal peptide) (PSI (0-1 scale)); higher = more stable (slower turnover); conditions: genetic background: wild type; temperature: 30 C;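 note: PSI is a weighted mean of sequencing reads over stability bins, variants kept only with over 10 reads, mCherry proximal and sfGFP distal, peptide attached via GGGS linker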

MONOMER_SEQUENCE	protein stability index
ARTIVLGAGSGT	0.654
PPQTSVASRPTR	0.695
PPAPPLPAPPWA	0.54
FGVSLFLPLSVV	0.407
PTQSDSTSTSRI	0.69
LDKGNQDHEWTR	0.654
WSLGLVGRGFWG	0.73
LAVVLVWVPGRW	0.418
SAVHRSVPMGGG	0.666
ASVRPCSCSGRQ	0.715
SVWCRWGWSDWG	0.795
PFRSPFSSSPTF	0.777
EGLRLWGRCCWG	0.74
SGLPALPRPVWP	0.491
KEKRFTQKLIRA	0.654
QEALLAPEYSVD	0.7
KKKKQKIKKQRK	0.63
PLPRPPPTATGD	0.687
TLGALEVSVYET	0.614
EKKRKKIYGNLK	0.683
PHHPPAHPPTPP	0.683
CSLLCKCHLRRL	0.712
GAGEGVGSVVVR	0.632
KASSGRASGSMA	0.673
LPPSPEPLPPRR	0.717
CLPSQSAESLTF	0.664
CRRLSICPILFL	0.607
SIRIIVVVRGAS	0.382
SRPRPPVTPPSE	0.648
GIVGFSHGIISL	0.703
PPPPPPLFPSPP	0.772
LPGLSRATTVYP	0.679
RLGSLVPLAKQL	0.444
FTVSPFIFLFSP	0.653
GQIACSECGGGG	0.679
FGRGLCPHRLWI	0.74
EQHTKNDQNNEP	0.664
GGGWGLRVSCGT	0.656
GGIVVRGVGVRC	0.661
GLFLLWWLGWLV	0.422
RGLANLIVIVSS	0.374
ERGSGSVPGGRD	0.649
GATLETPIGCGR	0.666
GEDGCGGSEAGG	0.656
AAPSRASDLARP	0.661
RGGAGGRLGCGG	0.71
AAVPPLSQSPDS	0.674
VVGAHLWSGFSA	0.711
IRCGQFSVVSES	0.6
LVICPRVLRDFR	0.663
LLRVMRAVFSGL	0.623
KKKKKSKIEKKD	0.725
RLDAGASAAFKG	0.718
PPRPPLHPLRLL	0.665
PPPRPRPPPRPP	0.581
PFLCLPFLLVSR	0.41
ELTKNRQTVIIS	0.635
GVVVKDPGNAFL	0.704
FLVWGLGWLCCV	0.594
KLGNVRGPSYSL	0.709
GEGCPAGGHGCE	0.686
SGLPVPFSALRS	0.718
FVRSVFFCVSVG	0.469
DQVWGGSEDNTV	0.76
VCGSILSVFRAY	0.571
FGFWGVVSCCNA	0.63
LSSLLFSPLPPS	0.759
PTLTTQPNVPLN	0.723
SRPISCSLPCCV	0.646
LCGIFTFRLSLL	0.388
SLHSSQYTRHSG	0.673
CGWCCVVCSCLV	0.602
LSFLALLLFFRI	0.476
PIVSISLGIGSS	0.676
PSSWPPPPPPLP	0.614
GCHRRDALRTGD	0.667
DVHPPPPAPPPP	0.747
GGPVEQVYSKGR	0.721
FFLVLWSSLLSP	0.454
VKQGCISSNCKL	0.762
KTKRMKSIKKSK	0.71
PPLASSPPVLAR	0.514

Recorded values, source the supplement of paper PMC10724198.
